target: hTAS2R1 (Homo sapiens, UniProt Q9NYW7); construct: export tag: amino acids 1-45 of rat somatostatin receptor 3 (N); expressed in transfected cells; host or cells: HEK-293T cells stably expressing the chimeric G-protein subunit Galpha16gust44; assay: FLIPR calcium mobilization, hTAS2R1-transfected HEK-293T/Gα16gust44 cells; format: cell-based; conditions: response of hTAS2R1; calcium signal, dose-response
Sequence (Q9NYW7 whole entry, the tested form may be a part): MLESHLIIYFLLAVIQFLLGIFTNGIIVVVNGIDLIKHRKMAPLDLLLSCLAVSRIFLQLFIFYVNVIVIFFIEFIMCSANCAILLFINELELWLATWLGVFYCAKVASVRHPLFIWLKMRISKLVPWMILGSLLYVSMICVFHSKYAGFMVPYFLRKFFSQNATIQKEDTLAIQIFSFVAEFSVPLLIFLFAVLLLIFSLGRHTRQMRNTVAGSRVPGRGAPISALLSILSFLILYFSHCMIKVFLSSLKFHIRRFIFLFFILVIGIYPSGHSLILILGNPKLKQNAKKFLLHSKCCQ
Attribute Measured: EC50 (µM)

substance_smiles=O=C(N[C@H](CO)[C@H](O)c1ccc([N+](=O)[O-])cc1)C(Cl)Cl attribute_measured=EC50 experimental_value=200

====

target: hTAS2R7 (Homo sapiens); construct: export tag: amino acids 1-45 of rat somatostatin receptor 3 (N); assay: FLIPR calcium mobilization, hTAS2R7-transfected HEK-293T/Gα16gust44 cells; conditions: response of hTAS2R7; calcium signal, dose-response
Sequence (Q9NYW3 whole entry, the tested form may be a part): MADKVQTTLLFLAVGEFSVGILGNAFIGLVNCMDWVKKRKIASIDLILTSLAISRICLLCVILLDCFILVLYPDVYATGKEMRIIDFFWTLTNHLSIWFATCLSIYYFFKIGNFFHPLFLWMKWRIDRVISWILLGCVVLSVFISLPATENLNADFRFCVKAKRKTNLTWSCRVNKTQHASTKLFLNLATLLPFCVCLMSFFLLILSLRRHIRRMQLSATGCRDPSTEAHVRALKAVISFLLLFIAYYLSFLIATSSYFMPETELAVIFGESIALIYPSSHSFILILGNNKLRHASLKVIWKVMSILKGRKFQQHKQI
pEC50: −log10 of the molar value.
Attribute Measured: pEC50

substance_smiles=O=C(O)c1cc(=O)c2c(OCC(O)COc3cccc4oc(C(=O)O)cc(=O)c34)cccc2o1 experimental_value=2.05
